# protocol_notes: plasma pharmacokinetics in patients (HPLC–MS/MS, non-compartmental analysis)
# Type: in vivo, human
# condition_label: human, plasma, oral, Dose-level 7: dacomitinib 30 mg (5/2) QD + PD-0325901 6 mg (5/2) BID; Cycle 1 Day 1; n = 3; read-out: Cmax dacomitinib, mean (CV%)
# Experimental: For pharmacokinetic analyses, serial blood samples were obtained from all patients prior to treatment administration on day 1, and 1, 2, 3, 4, 6, 8, 12, 24, 72 and 144 h after the first dose. […] Transitions from m/z 480 to 329 and m/z 489 to 255 were monitored for the detection of dacomitinib and PD-0325901, respectively. Stable isotope-labelled internal standards were used for the quantification. […]
property: Cmax (ng/mL)

- COc1cc2ncnc(Nc3ccc(F)c(Cl)c3)c2cc1NC(=O)/C=C/CN1CCCCC1 [dacomitinib]: 19.1
